Attribution: ChEMBL document CHEMBL4513216

# System: Plasmodium berghei
# Test Protocol: Screen against P. berghei liver stage (PbLuc), transformed with Luciferase, at 10uM
# Type: functional, HepG2
# Measurement Context: tested at 10 uM
The campaign covered roughly 69,000 compounds. About 8,600 (12%) showed an effect of 50% or more. For the sample, strong results were picked, then their nearest neighbours and some compounds at random.
Outcome Measure: INHIBITION (%)

1) Cc1cnn(C2CCCN(C(=O)c3ccc(N4CCCC4)nc3)C2)c1 (configuration not stated) ... 19.6
2) COC1(CNC(=O)NCc2ccccc2)CCSC1 (configuration not stated) ... 18.7
3) NC(=O)c1c(NC(=O)CCC(=O)O)sc2c1CCc1ccccc1-2 ... -13
4) N[C@H]1CN(C(=O)CCCc2ccc(F)cc2)C[C@@H]1C1CC1 ... 25.1
5) CN1CCN(c2ccc(F)cc2C(N)=O)CC1 ... 58.7
6) CN(C)c1cc(CNC(=O)C2COc3ccccc3O2)ccn1 (configuration not stated) ... 2.45
7) NC(=O)C1CCCN1Cc1cccc(NC(=O)c2cccs2)c1 (configuration not stated) ... -8.22
8) CCOC(=O)Cn1cccc(S(=O)(=O)N2CCCC2)c1=O ... -2.92
9) O=C(c1ccccc1)N(CC1CC1)c1cccnc1 ... 39.7
10) CC1(C)CN(C(=O)c2cc(F)cc3[nH]cnc23)CCS1 ... 10.2
11) CC(C)[C@@H]1CN(Cc2cnc(C3CCCCC3)nc2)C[C@H]1C(=O)O ... 13.5
12) CN(C)S(=O)(=O)c1ccc2c(c1)N(Cc1nccn1C)CC2 ... 37.1
13) O=C(O)C1(n2ccc(-c3ccco3)n2)CCN(Cc2cccs2)CC1 ... 43.4
14) O=C(Cc1csc(-c2ccco2)n1)N1CCN(c2ccccc2O)CC1 ... -44.3
15) Cn1cc(N2C(=O)CC[C@@H]3[C@H]2CCN3CCc2ccccc2)cn1 ... 17.4
16) NC(=O)C1CCCN1Cc1cccc(NC(=O)c2cc(Cl)cc(Cl)c2)c1 (configuration not stated) ... 68.8
17) CCn1cnnc1CNC(=O)Cc1ccc2c(c1)OCCO2 ... 1.78
18) COCCc1ncc(CN2C[C@@H](C(=O)O)[C@H](C(C)C)C2)cn1 ... 50.2
19) Cc1nnc2ccc(N3CCC4(CCOC4)C3)nn12 (configuration not stated) ... 9
20) NC(=O)C1CCCN1Cc1cccc(NC(=O)c2ccsc2)c1 (configuration not stated) ... -18.4
21) Cc1nc(C)c(C)c(N2CCC3(CCOC3)C2)n1 (configuration not stated) ... -129
22) Cc1nc(N2CCN(C(=O)c3ccncc3)CC2)c2c(n1)c(C)nn2C ... 33.3
23) COc1ccc(S(=O)(=O)N2CCC(O)(CN(C)C)C2)cc1 (configuration not stated) ... 38.2
24) CCn1cnnc1CNC(=O)N1CCN(c2nccs2)CC1 ... 27.8
25) C=C(C)CN(CC)C(=O)c1cc(F)ccc1N1CCN(C)CC1 ... 19.8
26) CN(c1cccnn1)C1CCN(C(=O)Cc2c[nH]c3ccccc23)CC1 ... 36.1
27) N#Cc1c(N2CCOCC2)nsc1-c1cccnc1 ... -31.3
28) CCn1cnnc1CNC(=O)N1CCC(C)CC1 ... -13.5
29) Cc1cc(C)cc(C(=O)Nc2cccc(CN3CCCC3C(N)=O)c2)c1 (configuration not stated) ... 56
30) CC(=O)N1CCCN(C(=O)CCc2c(C)nc3ccnn3c2C)CC1 ... 10
31) Cc1nc(CN2CCC(C(=O)O)(n3ccc(-c4ccco4)n3)CC2)co1 ... 5.14
32) NC(=O)NC(CC(=O)N1CCc2sccc2C1)c1ccccc1F (configuration not stated) ... 3.3
33) CC1CN(C(=O)c2ccn(C)c(=O)c2)c2ccccc2NC1=O (configuration not stated) ... -24
34) CCOc1ncccc1NC(=O)NCC(O)c1ccc(OC)cc1 (configuration not stated) ... 44.1
35) OCc1ccc(N2CCN(c3ncccn3)CC2)c(F)c1 ... 31.3
36) CC(NCc1ccncc1)c1ccc(N2CCN(C)CC2)c(F)c1 (configuration not stated) ... 15.8
37) CCc1ccc(C(=O)Nc2cccc(CN3CCCC3C(N)=O)c2)cc1 (configuration not stated) ... -40.7
38) CCC(C)NC(=O)c1nnn(-c2ccc(Br)cc2)n1 (configuration not stated) ... -10.6
39) COc1ccc(CC(=O)N2C[C@H]3CN(Cc4ccccn4)C[C@H]3C2)cc1 ... 18.6
40) Cc1c[nH]c(C2CN(Cc3ccccc3C(=O)O)CCO2)n1 (configuration not stated) ... 26.7
41) O=C(Cn1nc2c(cc1=O)CCCC2)NC(C(=O)O)c1ccccc1 (configuration not stated) ... 69.8
42) CC(C)c1ncc(CN2CCC(CO)C2)cn1 (configuration not stated) ... 8.72
43) COc1cc(NC(=O)C2CC(=O)N(c3cccc(Br)c3)C2)ncn1 (configuration not stated) ... 63.8
44) CC(NC(=O)N(C)C1CC1)c1ccc(Oc2cccnc2)c(F)c1 (configuration not stated) ... 37.4
45) Cn1cccc1C(=O)N[C@@H]1CN(Cc2ccsc2)[C@@H]2COC[C@@H]21 ... -37.4
46) CCOc1cc(NC(=O)C2CC(=O)N(c3cccc(OC)c3)C2)ncn1 (configuration not stated) ... 45.7
47) CN1CCN(CCOc2ccc(NC(=O)c3ccoc3)cc2)CC1 ... -6.99

====

# Test system: Plasmodium berghei
# Test Protocol: Screen against P. berghei liver stage (PbLuc), transformed with Luciferase, at 10uM
# Type: functional, HepG2
# Measurement Context: tested at 10 uM
In all, about 69,000 compounds went through this assay and about 8,600 (12%) showed an effect of 50% or more. The full list was thinned out, with strong results kept by preference.
Cut-off 30% on INHIBITION, inclusive. At or above means Met; below means Not met.

1. O=C(NCc1ccc(-n2cncn2)nc1)c1ccc2c(c1)CCC2 ... Not met
2. O=C(Cc1ccc2c(c1)CCC2)N1CCN(c2cnccn2)CC1 ... Not met
3. Cc1cnn(CCNCC(=O)N2CCN(c3ncccn3)CC2)c1 ... Not met
4. Cc1cc(CN(C)S(=O)(=O)N2CCCC2c2ccc(C)o2)no1 (stereo unspecified) ... Met
5. CCc1nnc2n1CCN(C(=O)C(C)Oc1cccc(C#N)c1)C2 (stereo unspecified) ... Not met
6. CCOCCN1Cc2cnn(C)c2C(COCC)C1 (stereo unspecified) ... Met

====

# Test system: Plasmodium berghei
# Test Protocol: Screen against P. berghei liver stage (PbLuc), transformed with Luciferase, at 10uM
# Type: functional, HepG2
# Measurement Context: tested at 10 uM
Out of some 69,000 compounds screened, about 8,600 (12%) showed an effect of 50% or more. For the sample, strong results were picked, then their nearest neighbours and some compounds at random.
Binary call on INHIBITION with cut-off 40%: strictly below means fulfilled, and equality or higher means not fulfilled.

1) Cc1ccc(CN2CCN(C(=O)c3ccc(Br)o3)CC2)cc1 ... not fulfilled
2) Cn1ccnc1CN1CCCN(C(=O)c2ccc(Cl)o2)CC1 ... fulfilled
3) COC(=O)c1sccc1CN1CCN(C(=O)c2ccc(C)o2)CC1 ... fulfilled
4) CS(=O)(=O)N1C[C@H]2N(c3ncccn3)CCC[C@@]2(C(=O)NCC2CC2)C1 ... fulfilled
5) CCc1ccc(C(=O)N2CCN(CCO)CC2)o1 ... fulfilled
6) O=C(c1ccc(Br)o1)N1CCN(Cc2ccc(OC(F)(F)F)cc2)CC1 ... not fulfilled
7) CC(C)CN1C[C@H]2N(c3ncccn3)CCC[C@@]2(C(=O)NCC2CC2)C1 ... not fulfilled
8) CC(O)CN1CCN(C(=O)c2ccc(Br)o2)CC1 (stereo unspecified) ... fulfilled
9) Cc1cc(C)n(CCN2CCN(C(=O)c3ccc(Br)o3)CC2)n1 ... fulfilled
10) COc1nn(C)cc1C(=O)N1CCC(c2nnc(C(C)C)o2)CC1 ... fulfilled
11) O=C(c1ccc(Br)s1)N1CCN(Cc2ccc(OC(F)(F)F)cc2)CC1 ... not fulfilled

====

# Tested on: Plasmodium berghei
# Test Protocol: Screen against P. berghei liver stage (PbLuc), transformed with Luciferase, at 10uM
# Type: functional, HepG2
# Measurement Context: tested at 10 uM
Among all 69,000 compounds or so, about 8,600 (12%) showed an effect of 50% or more. This excerpt belongs to a sample that is enriched for strong results.
Outcome Measure: INHIBITION (%)

1. O=C(c1ccoc1)N1CCO[C@]2(CCC[C@H]2COCc2cccnc2)C1 ... -34.7
2. Cc1cccc(CN2C[C@H]3CC[C@@H](C2)N(Cc2c(C)noc2C)C3=O)n1 ... -84
3. Fc1cnc(N2CCCn3c(nnc3Cn3cccc3)C2)nc1 ... -23.4
4. Cc1ccc(CN2CCc3ncnc(-c4ccoc4)c3CC2)o1 ... -8.28
5. Cn1cc(CN2CC[C@H]3OCC[C@@H](C(=O)Nc4cnccn4)[C@@H]3C2)cn1 ... 38.5
6. O=C(Cc1ccsc1)N1CCC(O)(CN2CCc3ccccc3C2)C1 (stereo unspecified) ... 30.8
7. Cc1cc(C(=O)N2CCCC3(CNC(=O)O3)C2)c2c(C)nn(C)c2n1 (stereo unspecified) ... 54.1
8. Cc1noc(C)c1CN1CCc2ncnc(-c3ccoc3)c2CC1 ... 68.4
9. O=C1NCC2(CCCN(C(=O)c3c[nH]nc3C3CCCCC3)C2)O1 (stereo unspecified) ... 31.8
10. c1ccc(CN2CCc3ncnc(-c4ccoc4)c3CC2)nc1 ... 12.4
11. CCS(=O)(=O)N1CCc2c(CN(C)Cc3ccco3)cncc2C1 ... 20.2
